tested on: COLO 205; test: Growth inhibition of human COLO205 cells at 10 uM incubated for 48 hrs by sulforhodamine B assay relative to control; format: functional; settings: COLO 205, 48 h, read-out: GI
Everything with inhibition of growth at 10 µM lower than 20% is False; everything else, including exactly 20%, is True.

Please review the entries below; each comes with its answer.
Task item: Is inhibition of growth at 10 µM at least 20%? Consider COc1cc(-c2nc3sc(-c4ccccc4)cn3n2)cc(OC)c1OC
Reply: False

Task item: Kindly determine if inhibition of growth at 10 µM recorded for COc1ccc(-c2nc3sc(-c4ccccc4)cn3n2)cc1 is above or exactly 20%.
Reply: True

Task item: Could you tell me if the measured inhibition of growth at 10 µM of COc1ccc(-c2nc3sc(-c4ccc(Cl)cc4)cn3n2)cc1 reaches 20% or more?
Reply: True

Task item: Confirm if inhibition of growth at 10 µM reported for the compound Clc1ccc(-c2cn3nc(-c4ccccc4)nc3s2)cc1 is 20% or above.
Reply: False

--- query ---
Task item: Form field: inhibition of growth at 10 µM at least 20%? Entry: c1ccc(-c2nc3sc(-c4ccccc4)cn3n2)cc1
Reply: False
